# Tested on: TG2:gluten complexes uptake by TG2-specific B cells (A20, BCR 679-14-E06)
# PROTOCOL TEXT: Inhibition by primary amines of TG2:gluten complex uptake by TG2-specific B cells, flow cytometry
# Format: cell-based, Murine A20 B lymphoma; recombinant human TG2
# REPORTED CONDITIONS: B-cell, 10 min, inhibition of FITC-α2 (5 µM) uptake, TG2 3 µg/mL, 2 mM CaCl2, RPMI, 37°C 10 min; mean; read-out: IC50
READOUT NAME: IC50 (µM)
Number in µM, nothing else.

NCCCCCNC(=O)CCCC[C@@H]1SC[C@@H]2NC(=O)N[C@@H]21 42

[Q] State, in one line, measured IC50 of `NCCCNCCCCNCCCN`
[A] 66.1

Numbers sourced from paper PMC9545004.
